FYI, the data here is from a melting point compilation (Tetko et al.; mined from patent text by program, amines drawn as free bases though some values may be those of a salt).

Measured melting point values are reported for all entries that follow.

Request: I would be grateful if you could share the reported melting point for C=CCn1cc(-c2ccccc2)c(=O)c(-c2cccc(C(F)(F)F)c2)c1 .
Response: 107 to 109 °C

Request: I would be grateful if you could share the reported melting point for CCN1CC2=C(C1)CN(c1c(F)cc3c(=O)c(C(=O)O)cn(C4CC4)c3c1F)C2 .
Response: 188 to 192 °C

Request: I would be grateful if you could share the reported melting point for O=C(O)CNC(=O)c1ccc([N+](=O)[O-])c(F)c1 .
Response: 136 to 138 °C

Request: I would be grateful if you could share the reported melting point for O=C1NCC=NN1c1cc(Cl)c(Cc2ccc(Cl)cc2)c(Cl)c1 .
Response: 199 to 200 °C

Request: I would be grateful if you could share the reported melting point for Cc1ccc2c(c1)NC(=O)C(NC(=O)Nc1cccc(Cl)c1)CC2C1CCCCC1 (stereo not given) .
Response: 162 to 169 °C

Request: I would be grateful if you could share the reported melting point for O=C(C(=Cc1ccc(F)cc1)S(=O)(=O)c1ccccc1)c1ccccc1 .
Response: 142 to 143 °C

Request: I would be grateful if you could share the reported melting point for CCn1nc(C)c2c1C(=NC#N)NCC(c1ccc(O)cc1)=N2 .
Response: 300 °C

Request: I would be grateful if you could share the reported melting point for Nc1ncnc2c1ncn2C1OC(CNC=O)C(O)C1O (stereo not given) .
Response: 212 to 213 °C

Request: I would be grateful if you could share the reported melting point for COc1cc(OC)c(OC)c(OC)c1OC .
Response: 59 to 61 °C

Request: I would be grateful if you could share the reported melting point for O=C(O)c1ccc(CN2C(=O)C3(COc4cc5c(cc43)OCCO5)c3ccccc32)cc1 (stereo not given) .
Response: 234 to 237 °C
